# systemTested: Pancreatic triacylglycerol lipase (Homo sapiens)
# assayComment: Inhibition of recombinant HPL expressed in Pichia pastoris at 400 molar excess after 30 mins in presence of NaTDC
For each of the compounds below, state its inhibition.

Measured inhibition, `CCCCCCCCCCC[C@@H](C[C@@H]1OC(=O)[C@H]1CCCCCC)OC(=O)[C@H](CC(C)C)NC=O` : 85%

Measured inhibition, `COc1nn(-c2cccc(Oc3ccccc3)c2)c(=O)o1` : 42.7%

Measured inhibition, `COc1nn(-c2ccc(Oc3ccccc3)cc2)c(=O)o1` : 20%

* * *

# systemTested: Bile salt-activated lipase (Homo sapiens)
# assayComment: Inhibition of human pancreatic CEH at 2 molar excess after 30 mins
resultType: inhibition (%)
The response must be a number in % with no trailing unit.

Measured inhibition, `COc1nn(-c2ccc(Oc3ccccc3)cc2)c(=O)o1` : 77.1

Measured inhibition, `COc1nn(-c2cccc(Oc3ccccc3)c2)c(=O)o1` : 54.5

Measured inhibition, `CCCCCCCCCCC[C@@H](C[C@@H]1OC(=O)[C@H]1CCCCCC)OC(=O)[C@H](CC(C)C)NC=O` : 80.1

Measured inhibition, `COc1nn(-c2ccccc2)c(=O)o1` : 71.6
